Target: T1, Human CD137 ECD (human)
T1 construct: entry includes C-terminal His-tag and biotin acceptor peptide; also called human CD137 extracellular domain; 4-1BB
T1 sequence (chain, as listed by the source limits assumed): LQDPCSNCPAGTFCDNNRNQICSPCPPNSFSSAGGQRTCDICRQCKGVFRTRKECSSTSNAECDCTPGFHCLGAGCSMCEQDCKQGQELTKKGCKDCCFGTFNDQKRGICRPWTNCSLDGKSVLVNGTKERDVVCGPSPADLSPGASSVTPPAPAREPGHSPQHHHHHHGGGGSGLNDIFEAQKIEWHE
Test: Biacore SPR, vs parent H183/L072
Measured fold change of affinity by item

- binder: "H183/L072 VL E27aN (antibody, name in Kabat numbering, V domains shown, Dual-Ig) VH: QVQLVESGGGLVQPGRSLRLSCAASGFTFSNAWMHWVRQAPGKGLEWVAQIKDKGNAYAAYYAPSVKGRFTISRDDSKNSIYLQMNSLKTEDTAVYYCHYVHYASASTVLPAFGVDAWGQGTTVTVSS VL: DIVMTQSPLSLPVTPGEPASISCQASQNLVHMNRNTYLHWYQQKPGQAPRLLIYKVSNRFPGVPDRFSGSGSGTDFTLKISRVEAEDVGVYYCAQGTSVPFTFGQGTKLEIK"
  result: "0.9 fold"

Now for a further binder.
Give me measured fold change of affinity, please, for this binder: H183/L072 VL Q24K (antibody, name in Kabat numbering, V domains shown, Dual-Ig) VH: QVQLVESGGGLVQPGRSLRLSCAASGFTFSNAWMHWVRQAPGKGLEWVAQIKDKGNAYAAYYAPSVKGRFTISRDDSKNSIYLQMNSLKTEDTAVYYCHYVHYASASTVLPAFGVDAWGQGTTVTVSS VL: DIVMTQSPLSLPVTPGEPASISCKASQELVHMNRNTYLHWYQQKPGQAPRLLIYKVSNRFPGVPDRFSGSGSGTDFTLKISRVEAEDVGVYYCAQGTSVPFTFGQGTKLEIK
1 fold

FYI, the data here is from patent US20210388087A1.
